Species on record: Rattus norvegicus
Assay: Open TG-GATES - Regimen: Single
Format: toxicity, organism-based, Sprague-Dawley
Parameters: regimen Single, gender Male, age 6 weeks
Conditions: in vivo, po, 0 mg/kg, 24 h, tissue Plasma, route gavage, dose level Control
Criterion: TBIL meeting or surpassing 0.2 mg/dL. Met: yes. Not met: no.

[Q] Determine whether this molecule has TBIL no lower than 0.2 mg/dL: O=C(O)c1cn(C2CC2)c2cc(N3CCNCC3)c(F)cc2c1=O [CIPROFLOXACIN]
[A] yes

[Q] Determine whether this molecule has TBIL no lower than 0.2 mg/dL: CSc1ccc2c(c1)N(CCC1CCCCN1C)c1ccccc1S2 (stereo not drawn) [THIORIDAZINE]
[A] yes

[Q] Determine whether this molecule has TBIL no lower than 0.2 mg/dL: NC(=O)N/N=C/c1ccc([N+](=O)[O-])o1 [NITROFURAZONE]
[A] no

[Q] Determine whether this molecule has TBIL no lower than 0.2 mg/dL: COc1ccc(Cc2nccc3cc(OC)c(OC)cc23)cc1OC [PAPAVERINE]
[A] no

[Q] Determine whether this molecule has TBIL no lower than 0.2 mg/dL: C[C@H](CS)C(=O)N1CCC[C@H]1C(=O)O [CAPTOPRIL]
[A] yes

[Q] Determine whether this molecule has TBIL no lower than 0.2 mg/dL: CCc1cc(C(N)=S)ccn1 [ETHIONAMIDE]
[A] yes

[Q] Determine whether this molecule has TBIL no lower than 0.2 mg/dL: CC(=O)Oc1ccccc1C(=O)O [ASPIRIN]
[A] no

* * *

Organism: Rattus norvegicus
Assay: Open TG-GATES - Regimen: Single
Format: toxicity, organism-based, Sprague-Dawley
Set-up: regimen Single, gender Male, age 6 weeks
Conditions: in vivo, po, 1000 mg/kg, 6 h, tissue Blood, route gavage, dose level High
Attribute measured: Mono (%)
Dear colleague, please return just the value in %, with no unit written.

The recorded Mono for entry "O=C(O)c1cc(/N=N/c2ccc(S(=O)(=O)Nc3ccccn3)cc2)ccc1O" equals 2.2

The recorded Mono for entry "Clc1ccccc1CN1CCc2sccc2C1" equals 2

The recorded Mono for entry "O=C(O)c1cn(C2CC2)c2cc(N3CCNCC3)c(F)cc2c1=O" equals 7.6

The recorded Mono for entry "C[C@H](CS)C(=O)N1CCC[C@H]1C(=O)O" equals 5.2

The recorded Mono for entry CCc1cc(C(N)=S)ccn1 [ETHIONAMIDE] equals 7.6

* * *

Species: Rattus norvegicus
Test: Open TG-GATES - Regimen: Single
Type: toxicity, organism-based, Sprague-Dawley
Parameters: regimen Single, gender Male, age 6 weeks
Settings: in vivo, po, 1000 mg/kg, 3 h, tissue Blood, route gavage, dose level High
Attribute measured: Neu (%)
Dear colleague, please return just the value in %, with no unit written.

The recorded Neu for entry Clc1ccccc1CN1CCc2sccc2C1 [TICLOPIDINE] equals 22.4

The recorded Neu for entry O=C(O)c1cc(/N=N/c2ccc(S(=O)(=O)Nc3ccccn3)cc2)ccc1O [SULFASALAZINE] equals 23.2

The recorded Neu for entry O=C(O)c1cn(C2CC2)c2cc(N3CCNCC3)c(F)cc2c1=O [CIPROFLOXACIN] equals 12.6

The recorded Neu for entry CCc1cc(C(N)=S)ccn1 [ETHIONAMIDE] equals 19.8

The recorded Neu for entry C[C@H](CS)C(=O)N1CCC[C@H]1C(=O)O [CAPTOPRIL] equals 16.4

* * *

Kindly supply the reported MCHC values for the records listed here.
Species: Rattus norvegicus
Experiment: Open TG-GATES - Regimen: Daily Repeat
Format: toxicity, organism-based, Sprague-Dawley
Design: regimen Daily Repeat, gender Male, age 6 weeks
Conditions: in vivo, po, 0 mg/kg, […], tissue Blood, route gavage, dose level Control, time 7 day
Dear colleague, please return just the value in %, with no unit written.

The recorded MCHC for entry "CO[C@H]1/C=C/O[C@@]2(C)Oc3c(C)c(O)c4c(O)c(c(/C=N/N5CCN(C)CC5)c(O)c4c3C2=O)NC(=O)/C(C)=C\C=C\[C@H](C)[C@H](O)[C@@H](C)[C@@H](O)[C@@H](C)[C@H](OC(C)=O)[C@@H]1C" equals 33.1

The recorded MCHC for entry "CC(=O)Oc1ccccc1C(=O)O" equals 34

The recorded MCHC for entry "C[C@H](CS)C(=O)N1CCC[C@H]1C(=O)O" equals 33.1

The recorded MCHC for entry "Cn1c(=O)c2[nH]cnc2n(C)c1=O.O" equals 34.2

The recorded MCHC for entry "Clc1ccccc1CN1CCc2sccc2C1" equals 36.4

The recorded MCHC for entry "O=C(O)c1cn(C2CC2)c2cc(N3CCNCC3)c(F)cc2c1=O" equals 31.8

The recorded MCHC for entry CSc1ccc2c(c1)N(CCC1CCCCN1C)c1ccccc1S2 (centres undefined) equals 33.3

The recorded MCHC for entry "COc1ccc2c(c1)c(CC(=O)O)c(C)n2C(=O)c1ccc(Cl)cc1" equals 33.3

The recorded MCHC for entry "COc1ccc(Cc2nccc3cc(OC)c(OC)cc23)cc1OC" equals 34.1

The recorded MCHC for entry CCc1cc(C(N)=S)ccn1 [ETHIONAMIDE] equals 34

The recorded MCHC for entry "CCCC(CCC)C(=O)O" equals 34.3

The recorded MCHC for entry "O=C(O)c1cc(/N=N/c2ccc(S(=O)(=O)Nc3ccccn3)cc2)ccc1O" equals 34.2

The recorded MCHC for entry "CN(C)CCC=C1c2ccccc2CCc2ccccc21" equals 33.1

The recorded MCHC for entry "NC(=O)N/N=C/c1ccc([N+](=O)[O-])o1" equals 33.5

* * *

Species on record: Rattus norvegicus
Assay: Open TG-GATES - Regimen: Daily Repeat
Assay type: toxicity, organism-based, Sprague-Dawley
Set-up: regimen Daily Repeat, gender Male, age 6 weeks
Conditions: in vivo, po, 0 mg/kg, […], tissue Blood, route gavage, dose level Control, time 28 day
Kindly supply the reported MCV values for the records listed here.
Dear colleague, please return just the value in fL, with no unit written.

The recorded MCV for entry "NC(=O)N/N=C/c1ccc([N+](=O)[O-])o1" equals 58

The recorded MCV for entry "CC(=O)Oc1ccccc1C(=O)O" equals 55.6

The recorded MCV for entry "CCCC(CCC)C(=O)O" equals 55.1

The recorded MCV for entry "COc1ccc2c(c1)c(CC(=O)O)c(C)n2C(=O)c1ccc(Cl)cc1" equals 56.1

The recorded MCV for entry "Clc1ccccc1CN1CCc2sccc2C1" equals 55.7

The recorded MCV for entry CSc1ccc2c(c1)N(CCC1CCCCN1C)c1ccccc1S2 (stereo not given) equals 59.2

The recorded MCV for entry "COc1ccc(Cc2nccc3cc(OC)c(OC)cc23)cc1OC" equals 56.6

The recorded MCV for entry "CO[C@H]1/C=C/O[C@@]2(C)Oc3c(C)c(O)c4c(O)c(c(/C=N/N5CCN(C)CC5)c(O)c4c3C2=O)NC(=O)/C(C)=C\C=C\[C@H](C)[C@H](O)[C@@H](C)[C@@H](O)[C@@H](C)[C@H](OC(C)=O)[C@@H]1C" equals 58.9

The recorded MCV for entry CCc1cc(C(N)=S)ccn1 [ETHIONAMIDE] equals 57.7

The recorded MCV for entry "CN(C)CCC=C1c2ccccc2CCc2ccccc21" equals 57.7

The recorded MCV for entry NC(=O)N1c2ccccc2C=Cc2ccccc21 [CARBAMAZEPINE] equals 56.8

The recorded MCV for entry "C[C@H](CS)C(=O)N1CCC[C@H]1C(=O)O" equals 57.4

The recorded MCV for entry "Cn1c(=O)c2[nH]cnc2n(C)c1=O.O" equals 54.6

The recorded MCV for entry "O=C(O)c1cc(/N=N/c2ccc(S(=O)(=O)Nc3ccccn3)cc2)ccc1O" equals 55.6

The recorded MCV for entry "O=C(O)c1cn(C2CC2)c2cc(N3CCNCC3)c(F)cc2c1=O" equals 57.8

* * *

Species on record: Rattus norvegicus
Test: Open TG-GATES - Regimen: Single
Type: toxicity, organism-based, Sprague-Dawley
Design: regimen Single, gender Male, age 6 weeks
Conditions: in vivo, po, 100 mg/kg, 3 h, tissue Blood, route gavage, dose level Low
Attribute measured: APTT (s)
Dear colleague, please return just the value in s, with no unit written.

The recorded APTT for entry Clc1ccccc1CN1CCc2sccc2C1 [TICLOPIDINE] equals 19.6

The recorded APTT for entry O=C(O)c1cc(/N=N/c2ccc(S(=O)(=O)Nc3ccccn3)cc2)ccc1O [SULFASALAZINE] equals 19.2

The recorded APTT for entry O=C(O)c1cn(C2CC2)c2cc(N3CCNCC3)c(F)cc2c1=O [CIPROFLOXACIN] equals 16.8

The recorded APTT for entry C[C@H](CS)C(=O)N1CCC[C@H]1C(=O)O [CAPTOPRIL] equals 16.3

The recorded APTT for entry CCc1cc(C(N)=S)ccn1 [ETHIONAMIDE] equals 16.6
